All figures here come from patent US11209437B2.

experiment: Viscosity responsiveness: fluorescence emission spectra of probes in glycerol and methanol; format: physicochemical; conditions: excited at maximum excitation wavelength of each probe
Observation type: Emission wavelength
Kindly format the answer as number then unit.

**Q:** Would you mind telling me what Emission wavelength value was observed for CN(CCOC(=O)NCc1ccc(COc2nc(N)nc3[nH]cnc23)cc1)c1ccc2nc(/C=C(\C#N)C(=O)OC(C)(C)C)oc2c1 [probe 43] ?
**A:** 602 nm

**Q:** Query (molecule): CN(CCOC(=O)NCc1ccc(COc2nccc(N)n2)cc1)c1cc2c(s1)-c1sc(/C=C(/C#N)C(=O)OC(C)(C)C)cc1C2(C)C [probe 95] ; field requested: Emission wavelength
**A:** 645 nm

**Q:** # get_value(readout='Emission wavelength', item= CN(CCOC(=O)NCc1ccc(COc2nc(N)nc3[nH]cnc23)cc1)c1cc2sc(/C=C(\C#N)c3nc4ccccc4o3)cc2s1 [probe 22] )
**A:** 590 nm

**Q:** // lookup Emission wavelength for CN(CCOC(=O)NCc1ccc(COc2cc(Cl)nc(N)n2)cc1)c1ccc(/C=C(\C#N)c2nc3ccccc3s2)cc1 [probe 6]
**A:** 610 nm

**Q:** Suppose we examine the molecule COCCNC(=O)/C(C#N)=C/c1ccc(-c2ccc(N(C)CCOC(=O)NCc3ccc(COc4nccc(N)n4)cc3)cc2)s1 [probe 69] ; what Emission wavelength value has been reported?
**A:** 620 nm

**Q:** Dear colleague, I am looking for the recorded Emission wavelength of the following molecule: CN(CCOC(=O)NCc1ccc(COc2nc(N)nc3[nH]cnc23)cc1)c1ccc(/C=C(\C#N)c2nc3ccccc3o2)cc1 [probe 2]
**A:** 510 nm

**Q:** So what does the record say about Emission wavelength for N#C/C(=C\c1ccc2c(c1)SCCN2CCOC(=O)NCc1ccc(COc2nc(N)nc3[nH]cnc23)cc1)c1nc2ccccc2s1 [probe 86] ?
**A:** 550 nm
